Biological target: T1, protocadherin-15 EC1+2, wild type, His-tagged (mouse, UniProt Q99PJ1 27-259)
T1 construct: Protocadherin-15 (PCDH15), mouse, N-terminal fragment EC1+2; pET21a, NdeI/XhoI; predicted molecular weight 27.5 kDa; Held on the Ni-NTA chip by its His tag in SPR; also called pcdh15; pcdh15(WT); not shown: His6, C-terminal, kept
Experiment: thermal scanning (thermal stability shift assay with SYPRO orange); pcdh15 fixed at 0.1 mg/mL (~4 μM), cdh23 0.1 to 0.5 mg/mL (~4 to 20 μM; cdh23:pcdh15 1:1 to 5:1); SEC buffer (20 mM Tris-HCl pH 7.5, 150 mM KCl, 50 mM NaCl, 2 mM CaCl2); 10 to 95°C in 0.2°C steps, 5 s equilibration; read-out: shift of the Tm of pcdh15 (ΔTm)
Details: both partners purified
MEASUREMENT LABEL: ΔTm of pcdh15 at cdh23:pcdh15 3:1 (°C)
Respond with the bare value in °C.

QUERY: Give the measured ΔTm of pcdh15 at cdh23:pcdh15 3:1 for cadherin-23 EC1+2 S76V, His-tagged (domain or fragment, mouse, Cadherin-23 (CDH23), mouse, N-terminal fragment EC1+2; Mutant of m1 made with QuikChange; also called cdh23(S76V)) QVNRLPFFTNHFFDTYLLISEDTPVGSSVTQLLARDMDNDPLVFGVSGEEASRFFAVEPDTGVVWLRQPLDRETKVEFTVEFSVSDHQGVITRKVNIQVGDVNDNAPTFHNQPYSVRIPENTPVGTPIFIVNATDPDLGAGGSVLYSFQPPSPFFAIDSARGIVTVIQELDYEVTQAYQLTVNATDQDKTRPLSTLANLAIIITD
RESULT: 4

QUERY: Respond only with ΔTm of pcdh15 at cdh23:pcdh15 3:1 recorded for cadherin-23 EC1+2 T15E, His-tagged (domain or fragment, mouse, Cadherin-23 (CDH23), mouse, N-terminal fragment EC1+2; Mutant of m1 made with QuikChange; also called cdh23(T15E)) QVNRLPFFTNHFFDEYLLISEDTPVGSSVTQLLARDMDNDPLVFGVSGEEASRFFAVEPDTGVVWLRQPLDRETKSEFTVEFSVSDHQGVITRKVNIQVGDVNDNAPTFHNQPYSVRIPENTPVGTPIFIVNATDPDLGAGGSVLYSFQPPSPFFAIDSARGIVTVIQELDYEVTQAYQLTVNATDQDKTRPLSTLANLAIIITD
RESULT: 4.8

QUERY: Please look at this protein and report its ΔTm of pcdh15 at cdh23:pcdh15 3:1: cadherin-23 EC1+2 F7E, His-tagged (domain or fragment, mouse, Cadherin-23 (CDH23), mouse, N-terminal fragment EC1+2; Mutant of m1 made with QuikChange; also called cdh23(F7E)) QVNRLPEFTNHFFDTYLLISEDTPVGSSVTQLLARDMDNDPLVFGVSGEEASRFFAVEPDTGVVWLRQPLDRETKSEFTVEFSVSDHQGVITRKVNIQVGDVNDNAPTFHNQPYSVRIPENTPVGTPIFIVNATDPDLGAGGSVLYSFQPPSPFFAIDSARGIVTVIQELDYEVTQAYQLTVNATDQDKTRPLSTLANLAIIITD
RESULT: 5.5

QUERY: Assign ΔTm of pcdh15 at cdh23:pcdh15 3:1 to the following record: cadherin-23 EC1+2, wild type, His-tagged (domain or fragment, mouse, Cadherin-23 (CDH23), mouse, N-terminal fragment EC1+2; pET21a, NdeI/XhoI; predicted molecular weight 23.8 kDa; also called cdh23; cdh23(WT)) QVNRLPFFTNHFFDTYLLISEDTPVGSSVTQLLARDMDNDPLVFGVSGEEASRFFAVEPDTGVVWLRQPLDRETKSEFTVEFSVSDHQGVITRKVNIQVGDVNDNAPTFHNQPYSVRIPENTPVGTPIFIVNATDPDLGAGGSVLYSFQPPSPFFAIDSARGIVTVIQELDYEVTQAYQLTVNATDQDKTRPLSTLANLAIIITD
RESULT: 4.1
